Readings of IC50 for the listed molecules
target: human recombinant HPK1 (Homo sapiens, UniProt Q92918); test: Inhibitory activity against human recombinant HPK1 (TR-FRET); conditions: ULight-p70S6K peptide, ATP at Km, room temperature, 1 hour, 0.32 to 1000 nM compound
Sequence (Q92918 whole entry): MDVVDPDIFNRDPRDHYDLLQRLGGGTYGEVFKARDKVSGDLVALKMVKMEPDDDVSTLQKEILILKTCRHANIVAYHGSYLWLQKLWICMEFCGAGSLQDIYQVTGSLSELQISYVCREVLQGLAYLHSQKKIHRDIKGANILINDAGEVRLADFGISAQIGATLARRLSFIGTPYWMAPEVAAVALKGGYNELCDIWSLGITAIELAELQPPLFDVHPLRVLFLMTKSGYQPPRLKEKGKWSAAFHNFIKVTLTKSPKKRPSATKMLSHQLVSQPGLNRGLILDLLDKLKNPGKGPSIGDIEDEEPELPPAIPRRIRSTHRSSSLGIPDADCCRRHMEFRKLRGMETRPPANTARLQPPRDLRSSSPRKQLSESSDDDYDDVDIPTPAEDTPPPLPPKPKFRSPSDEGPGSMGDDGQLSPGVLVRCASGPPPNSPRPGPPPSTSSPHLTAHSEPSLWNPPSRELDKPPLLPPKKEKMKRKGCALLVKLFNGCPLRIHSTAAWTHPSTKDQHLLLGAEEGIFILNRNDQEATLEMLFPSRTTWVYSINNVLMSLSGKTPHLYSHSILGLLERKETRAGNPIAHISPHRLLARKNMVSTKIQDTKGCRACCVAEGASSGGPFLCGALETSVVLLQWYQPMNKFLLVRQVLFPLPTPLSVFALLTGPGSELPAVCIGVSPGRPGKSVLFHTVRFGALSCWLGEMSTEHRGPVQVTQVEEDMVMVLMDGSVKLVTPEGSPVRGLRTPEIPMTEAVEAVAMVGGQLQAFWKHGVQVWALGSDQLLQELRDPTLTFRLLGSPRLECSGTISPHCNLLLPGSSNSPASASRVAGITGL
Structures can show the parent of a compound that is named as a salt.

Worked set:
COc1cccc(F)c1-c1nc(Nc2cc(N3CCC[C@H](O)C3)c(-c3cnn(CC(F)F)c3)cn2)ccc1N = ≤ 10 nM
COc1cccc(F)c1-c1nccc(Nc2cc(N3CCC[C@H](O)C3)c(-c3ccc(N4CCOCC4)nc3)cn2)n1 = ≤ 10 nM
COc1cccc(F)c1-c1nccc(N(CCN(C)C)c2cc(N3CCC[C@H](N)C3)c(-c3ccc(N)nc3)cn2)n1 [Example 240, hydrochloride] = ≤ 10 nM
COc1cccc(F)c1-c1nc(Nc2cc(N3CCC[C@H](N)C3)c(-c3cnn(CC4CC4)c3)cn2)ccc1C#N [Example 330, hydrochloride] = ≤ 10 nM
COc1cccc(F)c1-c1nccc(Nc2cc(N3CCC[C@H](N)C3)c(-c3cnn(C4CCNCC4)c3)cn2)n1 [Example 283, hydrochloride] = ≤ 10 nM
COc1cccc(F)c1-c1nccc(Nc2cc(N3CCC[C@H](O)C3)c(-c3ccc(CN4CCC(N)CC4)nc3)cn2)n1 [Example 55, hydrochloride] = 10 to 50 nM

Query: Fill blank: measured IC50 of the molecule COc1cccc(F)c1-c1nccc(Nc2cc(N3CCC[C@H](N)C3)c(-c3ccc(F)c(N(C)C)c3)cn2)n1 [Example 296, hydrochloride] is ____.
Reply: ≤ 10 nM

Query: Fill blank: measured IC50 of the molecule COc1cccc(F)c1-c1nccc(Nc2cc(N3CCC(C(F)(F)F)CC3)c(-c3cnn(C4CCOCC4)c3)cn2)n1 is ____.
Reply: ≤ 10 nM

Query: Fill blank: measured IC50 of the molecule COc1cccc(F)c1-c1nccc(Nc2cc(N3CCC[C@H](N)C3)c(-c3ccc(F)c(F)c3)cn2)n1 [Example 294, hydrochloride] is ____.
Reply: ≤ 10 nM

Query: Fill blank: measured IC50 of the molecule COc1cccc(F)c1-c1nccc(Nc2cc(N3CCC[C@@H](C(F)F)C3)c(-c3cnn(C(F)F)c3)cn2)n1 is ____.
Reply: ≤ 10 nM

Query: Fill blank: measured IC50 of the molecule COc1cccc(F)c1-c1nc(Nc2cc(N3CC[C@@H](F)[C@H](N)C3)c(-c3cnn(C(F)F)c3)cn2)ccc1C#N [Example 321, hydrochloride] is ____.
Reply: ≤ 10 nM

Query: Fill blank: measured IC50 of the molecule COc1cc(F)cc(F)c1-c1nc(Nc2cc(N3CCC[C@H](O)C3)c(-c3cnn(CC(F)(F)F)c3)cn2)ccc1C#N is ____.
Reply: ≤ 10 nM

Query: Fill blank: measured IC50 of the molecule COc1cccc(F)c1-c1nccc(Nc2cc(N3CCC[C@H](O)C3)c(-c3ccc(CN4CC[C@H](F)C4)nc3)cn2)n1 is ____.
Reply: ≤ 10 nM

====

Target: human recombinant HPK1 (Homo sapiens, UniProt Q92918)
Assay: Inhibitory activity against human recombinant HPK1 (TR-FRET)
Conditions: ULight-p70S6K peptide, ATP at Km, room temperature, 1 hour, 0.32 to 1000 nM compound
Protocol: Test Example: Evaluation of Inhibitory Activity Against Human Recombinant HPK1 The inhibitory activity against human recombinant HPK1 was evaluated using the Time-Resolved Fluorescence Resonance Energy Transfer (TR-FRET) technology of Perkin-Elmer. […] The signals of TR-FRET at excitation wavelength (320 nm) and emission wavelength (665 nm) were detected using a microplate reader (Envision Multilabel Reader, Perkin-Elmer). […]
Where a name gives a salt, the structure may show the parent alone.
Readings of IC50 for the listed molecules

Worked set:
COc1cccc(F)c1-c1nc(Nc2cc(N3CCC[C@H](O)C3)c(C(=O)N[C@@H]3CC[C@@H](O)C3)cn2)ccc1N = ≤ 10 nM
COc1cccc(F)c1-c1nccc(Nc2cc(N3CCC[C@H](C)C3)c(-c3cnn(C(F)F)c3)cn2)n1 = ≤ 10 nM

Query: Fill blank: measured IC50 of the molecule COc1cccc(F)c1-c1nc(Nc2cc(N3CCC[C@H](O)C3)c(C(=O)N[C@@H]3CC[C@@H](N)C3)cn2)ccc1[N+](=O)[O-] [Example 199, hydrochloride] is ____.
Reply: ≤ 10 nM

====

Readings of pIC50 for the listed compounds
target: human recombinant HPK1 (Homo sapiens, UniProt Q92918); assay: Inhibitory activity against human recombinant HPK1 (TR-FRET); conditions: ULight-p70S6K peptide, ATP at Km, room temperature, 1 hour, 0.32 to 1000 nM compound
pIC50: −log10 of the molar value. Structures can show the parent of a compound that is named as a salt.

Worked set:
COc1cc(F)cc(F)c1-c1nccc(Nc2cc(N3CCC[C@H](O)C3)c(-c3cnn(C(F)F)c3)cn2)n1 = ≥ 8.00
COc1cc(F)cc(F)c1-c1nccc(Nc2cc(N3CCC[C@H](N)C3)c(C#CC3CCOCC3)cn2)n1 = ≥ 8.00
COc1cccc(F)c1-c1nc(Nc2cc(N3CCC[C@H](N)C3)c(-c3cnn(C(C)C)c3)cn2)ccc1C#N [Example 328, hydrochloride] = ≥ 8.00
COCCn1cc(-c2cnc(Nc3ccc(C(N)=O)c(-c4c(F)cccc4OC)n3)cc2N2CCC[C@H](O)C2)cn1 = ≥ 8.00
COc1cccc(F)c1-c1nccc(Nc2cc(N3CCC[C@H](N)C3)c(-c3ccc(N4CCCC4=O)cc3)cn2)n1 [Example 259, hydrochloride] = ≥ 8.00

Query: Fill blank: measured pIC50 of the compound COc1cccc(F)c1-c1nc(Nc2cc(N3CCC[C@H](O)C3)c(-c3cnn(C(F)F)c3)cn2)ccc1C(N)=O is ____.
Reply: ≥ 8.00

Query: Fill blank: measured pIC50 of the compound COc1cc(F)cc(F)c1-c1nccc(Nc2cc(N3CCC[C@H](N)C3)c(C#CC3(O)CCOCC3)cn2)n1 is ____.
Reply: ≥ 8.00

Query: Fill blank: measured pIC50 of the compound COc1cccc(F)c1-c1nccc(Nc2cc(N3CC[C@@H](F)[C@H](N)C3)c(-c3cnn(C(F)F)c3)cn2)n1 [Example 208, hydrochloride] is ____.
Reply: ≥ 8.00

Query: Fill blank: measured pIC50 of the compound COc1cccc(F)c1-c1nccc(Nc2cc(N3CCC[C@H](N)C3)c(-c3cn(C)nc3C(F)(F)F)cn2)n1 [Example 131, hydrochloride] is ____.
Reply: 7.00 to 7.30

====

target: human recombinant HPK1 (Homo sapiens); assay: Inhibitory activity against human recombinant HPK1 (TR-FRET); details: ULight-p70S6K peptide, ATP at Km, room temperature, 1 hour, 0.32 to 1000 nM compound
Structures can show the parent of a compound that is named as a salt.
property_measured: IC50

Worked set:
COc1cccc(F)c1-c1nccc(Nc2cc(N3CCC(C)(CO)C3)c(-c3cnn(C4CCOCC4)c3)cn2)n1 (stereo not shown) = > 100 nM
COc1cccc(F)c1-c1nc(Nc2cc(N3CCC[C@H](O)C3)c(C#Cc3cnn(C(F)F)c3)cn2)ccc1[N+](=O)[O-] = ≤ 10 nM
COc1cccc(F)c1-c1nccc(Nc2cc(N3CC[C@@H](N)[C@H](C)C3)c(-c3cnn(C(F)F)c3)cn2)n1 [Example 268, hydrochloride] = ≤ 10 nM

Query: GET /values?readout=IC50&system=human recombinant HPK1 (Homo sapiens)&item= COc1cccc(F)c1-c1nc(Nc2cc(N3CCC[C@H](O)C3)c(-c3cnn(C(F)F)c3)cn2)ccc1[N+](=O)[O-]
Reply: ≤ 10 nM

====

molecular target: human recombinant HPK1 (Homo sapiens); experiment: Inhibitory activity against human recombinant HPK1 (TR-FRET); settings: ULight-p70S6K peptide, ATP at Km, room temperature, 1 hour, 0.32 to 1000 nM compound
Counter-ions that a name gives are not always drawn.
property_measured: IC50

COc1cccc(F)c1-c1nccc(Nc2cc(N3CCC[C@@H](O)C3)c(C#Cc3cnn(C(F)(F)F)c3)cn2)n1 [Example 9] = 10 to 50 nM

Query: Fill blank: measured IC50 of the compound COc1cc(F)cc(F)c1-c1nc(Nc2cc(N3CCC[C@H](N)C3)c(-c3cnn(C4CCOCC4)c3)cn2)ccc1C#N [Example 309, hydrochloride] is ____.
Reply: ≤ 10 nM

Query: Fill blank: measured IC50 of the compound COc1cccc(F)c1-c1nccc(Nc2cc(N3CCC[C@H](N)C3)c(-c3ccc(C4CCOCC4)nc3)cn2)n1 [Example 82, hydrochloride] is ____.
Reply: ≤ 10 nM

====

Readings of IC50 for the listed molecules
biological target: human recombinant HPK1 (Homo sapiens); experiment: Inhibitory activity against human recombinant HPK1 (TR-FRET); details: ULight-p70S6K peptide, ATP at Km, room temperature, 1 hour, 0.32 to 1000 nM compound
Where a name gives a salt, the structure may show the parent alone.

COc1cc(C(=O)N(C)C)cc(F)c1-c1nccc(Nc2cc(N3CCC[C@H](N)C3)c(-c3cnn(C(F)F)c3)cn2)n1 [Example 187, hydrochloride] = ≤ 0.01 µM

Query: Fill blank: measured IC50 of the molecule COc1cccc(F)c1-c1nc(Nc2cc(N3CCC[C@H](O)C3)c(-c3cnn(CC(F)F)c3)cn2)ccc1C(N)=O [Example 160] is ____.
Reply: ≤ 0.01 µM

Query: Fill blank: measured IC50 of the molecule COc1cccc(F)c1-c1nccc(Nc2cc(N3CC(O)C3)c(C(=O)C3CC3)cn2)n1 [Example 6] is ____.
Reply: 0.01 to 0.05 µM
